- System: myeloid leukemia patient primary cells Pat.3
- PROTOCOL DETAILS: cell viability (% survival relative to DMSO control); higher = less cytotoxic
- CONDITION DETAILS: 1 nM; 72 h
PARAMETER MEASURED: cell viability (%)
Enter your answer as a number in %; do not include the unit.

Example results:
[
  {
    "COMPOUND STRING": "O=C(CCl)N(CCCNC(=O)C(F)(F)F)c1ccc([N+](=O)[O-])cc1",
    "UNIT SYMBOL": "%",
    "cell viability": 96.1
  },
  {
    "COMPOUND STRING": "O=C(/C=C/c1cccnc1)NCCCCC1CCN(C(=O)c2ccccc2)CC1",
    "UNIT SYMBOL": "%",
    "cell viability": 3.7
  },
  {
    "COMPOUND STRING": "Nc1ccn([C@@H]2O[C@H](CO)[C@@H](O)C2(F)F)c(=O)n1",
    "UNIT SYMBOL": "%",
    "cell viability": 61.9
  },
  {
    "COMPOUND STRING": "CN(C)CCNC(=O)c1cccn2c(=O)c3cc4ccccc4cc3nc12",
    "UNIT SYMBOL": "%",
    "cell viability": 94.4
  },
  {
    "COMPOUND STRING": "O=C(Cc1cccc(OC(F)(F)F)c1)Nc1ccc(CCCCc2nnc(NC(=O)Cc3ccccn3)s2)nn1",
    "UNIT SYMBOL": "%",
    "cell viability": 67.7
  }
]

Lookup result for Cc1nnc(-c2ccc(N3CCC(Oc4ccccc4C(F)(F)F)CC3)nn2)s1 ; measured cell viability: 76.3

Lookup result for C=C1NC(=O)c2cc(CN(C)c3ccc(C(=O)N[C@@H](CCC(=O)O)C(=O)O)s3)ccc2N1 ; measured cell viability: 81.1

Lookup result for c1ccc2c(c1)SCc1c-2[nH]c2ccccc12 ; measured cell viability: 96.1

Lookup result for CC(C)c1onc(-c2c(Cl)cccc2Cl)c1COc1ccc(/C=C/c2cccc(C(=O)O)c2)c(Cl)c1 ; measured cell viability: 83.5

----------
- Test system: myeloid leukemia patient primary cells Pat.8
- PROTOCOL DETAILS: cell viability (% survival relative to DMSO control); higher = less cytotoxic
- CONDITION DETAILS: 1 nM; 72 h
PARAMETER MEASURED: cell viability (%)
Enter your answer as a number in %; do not include the unit.

Example results:
[
  {
    "COMPOUND STRING": "Clc1cc(Cl)c(OCC#CI)cc1Cl",
    "cell viability / %": 66.4
  },
  {
    "COMPOUND STRING": "Oc1ncc(F)c(O)n1",
    "cell viability / %": 85.8
  }
]

Lookup result for CCCCCCCCCCCCC/C=C/[C@@H](O)[C@H](CO)N(C)C ; measured cell viability: 71.9

Lookup result for c1ccc2c(c1)SCc1c-2[nH]c2ccccc12 ; measured cell viability: 92.5

----------
- System: myeloid leukemia patient primary cells Pat.4
- PROTOCOL DETAILS: cell viability (% survival relative to DMSO control); higher = less cytotoxic
- CONDITION DETAILS: 1000 nM; 72 h
Counter-ions that a name gives are not always drawn.
PARAMETER MEASURED: cell viability

[
  {
    "MOLECULE": "CN(C)CCNC(=O)c1cccn2c(=O)c3cc4ccccc4cc3nc12",
    "cell viability": "3.78%"
  },
  {
    "MOLECULE": "Cc1nnc(-c2ccc(N3CCC(Oc4ccccc4C(F)(F)F)CC3)nn2)s1",
    "cell viability": "85.8%"
  },
  {
    "MOLECULE": "NS(=O)(=O)c1ccc(S(=O)(=O)Nc2cccc3c(Cl)c[nH]c23)cc1",
    "cell viability": "28%"
  },
  {
    "MOLECULE": "CC(C)(Cc1ccccc1)NCC(O)c1ccc(O)c(NS(C)(=O)=O)c1 (stereo unspecified) [Zinterol hydrochloride]",
    "cell viability": "93.3%"
  },
  {
    "MOLECULE": "O=C(Oc1cccc(F)c1OC(=O)c1cccc(O)c1)c1cccc(O)c1",
    "cell viability": "99%"
  }
]

Next:
Lookup result for Fc1ccc(CNc2ncnc3ccc(F)cc23)cc1 ; measured cell viability: 70.4%

Data origin, for the record: the supplement of paper PMC8671470
